Species on record: Rattus norvegicus
Assay: Open TG-GATES - Regimen: Daily Repeat
Type: toxicity, organism-based, Sprague-Dawley
Parameters: regimen Daily Repeat, gender Male, age 6 weeks
Conditions: in vivo, po, 0 mg/kg, […], tissue Blood, route gavage, dose level Control, time 7 day
Recorded MCHC for the following molecules

MOLECULE: CCc1oc2ccccc2c1C(=O)c1cc(Br)c(O)c(Br)c1
MCHC [%]: 33.8

MOLECULE: CC(C)N(CCC(C(N)=O)(c1ccccc1)c1ccccn1)C(C)C (stereo not given) [DISOPYRAMIDE]
MCHC [%]: 32.1

MOLECULE: CC[C@H]1[C@@H]2C[C@H]3[C@@H]4N(C)c5ccccc5[C@]45C[C@@H]([C@@H]2[C@H]5O)N3[C@@H]1O
MCHC [%]: 32.6

MOLECULE: O=NN(CCCl)C(=O)NC1CCCCC1
MCHC [%]: 33.4

MOLECULE: OCCOCCN1CCN(C(c2ccccc2)c2ccc(Cl)cc2)CC1 (stereo not given) [HYDROXYZINE]
MCHC [%]: 33.3

MOLECULE: CC1=C(CC(=O)O)c2cc(F)ccc2/C1=C\c1ccc([S+](C)[O-])cc1 (stereo not given)
MCHC [%]: 34.1

MOLECULE: CCC1(c2ccccc2)C(=O)NC(=O)NC1=O
MCHC [%]: 33.4

MOLECULE: CN(C)C(=N)N=C(N)N
MCHC [%]: 34

MOLECULE: ClC(Cl)(Cl)Cl [CARBON TETRACHLORIDE]
MCHC [%]: 34.8

MOLECULE: CN(C)CCC=C1c2ccccc2COc2ccccc21 [DOXEPIN]
MCHC [%]: 35.1
